# study-target: IDH1^R132H homodimer enzyme (Homo sapiens, UniProt O75874, R132H)
# Sequence (O75874 whole entry R132H): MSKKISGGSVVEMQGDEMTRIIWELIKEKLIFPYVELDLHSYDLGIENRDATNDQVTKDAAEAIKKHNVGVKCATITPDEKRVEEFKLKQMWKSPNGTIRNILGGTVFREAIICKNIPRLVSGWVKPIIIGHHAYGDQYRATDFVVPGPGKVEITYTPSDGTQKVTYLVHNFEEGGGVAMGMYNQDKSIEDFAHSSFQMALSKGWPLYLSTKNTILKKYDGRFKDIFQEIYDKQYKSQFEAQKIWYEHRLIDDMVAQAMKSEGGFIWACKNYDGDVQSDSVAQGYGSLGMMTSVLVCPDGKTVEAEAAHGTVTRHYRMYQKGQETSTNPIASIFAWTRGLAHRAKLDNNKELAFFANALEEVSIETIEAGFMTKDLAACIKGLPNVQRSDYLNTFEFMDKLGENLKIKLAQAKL
# assay-overview: NADPH depletion assay, IDH1 R132H
# Experimental: IDH mutated enzyme activity converting alpha-ketoglutarate to 2-hydroxyglutaric acid is measured using a NADPH depletion assay. In the assay the remaining cofactor is measured at the end of the reaction with the addition of a catalytic excess of diaphorase and resazurin, to generate a fluorescent signal in proportion to the amount of NADPH remaining. […]
pIC50: −log10 of the molar value.
assay-readout: pIC50

I = C[C@H](Nc1ncc2ccc(=O)n(CC(C)(C)C)c2n1)c1ccccc1
II = CC(C)(C)Cn1c(=O)ccc2cnc(NC(C)(C)c3ccccc3)nc21
III = C=CC(=O)N1CCN(C(CC2CC2)c2ccc([C@H](C)Nc3ncc4ccc(=O)n(C(C)C)c4n3)cc2)CC1 (stereo partly shown)
Rank descending by pIC50. Answer with the labels in sequence, matching the requested order.
III, I, II
